The measurements presented in this section are drawn from patent US20120129766A1.

Molecular target: T1, human β-klotho (human, UniProt Q86Z14 1-1044)
T1 sequence (looked up): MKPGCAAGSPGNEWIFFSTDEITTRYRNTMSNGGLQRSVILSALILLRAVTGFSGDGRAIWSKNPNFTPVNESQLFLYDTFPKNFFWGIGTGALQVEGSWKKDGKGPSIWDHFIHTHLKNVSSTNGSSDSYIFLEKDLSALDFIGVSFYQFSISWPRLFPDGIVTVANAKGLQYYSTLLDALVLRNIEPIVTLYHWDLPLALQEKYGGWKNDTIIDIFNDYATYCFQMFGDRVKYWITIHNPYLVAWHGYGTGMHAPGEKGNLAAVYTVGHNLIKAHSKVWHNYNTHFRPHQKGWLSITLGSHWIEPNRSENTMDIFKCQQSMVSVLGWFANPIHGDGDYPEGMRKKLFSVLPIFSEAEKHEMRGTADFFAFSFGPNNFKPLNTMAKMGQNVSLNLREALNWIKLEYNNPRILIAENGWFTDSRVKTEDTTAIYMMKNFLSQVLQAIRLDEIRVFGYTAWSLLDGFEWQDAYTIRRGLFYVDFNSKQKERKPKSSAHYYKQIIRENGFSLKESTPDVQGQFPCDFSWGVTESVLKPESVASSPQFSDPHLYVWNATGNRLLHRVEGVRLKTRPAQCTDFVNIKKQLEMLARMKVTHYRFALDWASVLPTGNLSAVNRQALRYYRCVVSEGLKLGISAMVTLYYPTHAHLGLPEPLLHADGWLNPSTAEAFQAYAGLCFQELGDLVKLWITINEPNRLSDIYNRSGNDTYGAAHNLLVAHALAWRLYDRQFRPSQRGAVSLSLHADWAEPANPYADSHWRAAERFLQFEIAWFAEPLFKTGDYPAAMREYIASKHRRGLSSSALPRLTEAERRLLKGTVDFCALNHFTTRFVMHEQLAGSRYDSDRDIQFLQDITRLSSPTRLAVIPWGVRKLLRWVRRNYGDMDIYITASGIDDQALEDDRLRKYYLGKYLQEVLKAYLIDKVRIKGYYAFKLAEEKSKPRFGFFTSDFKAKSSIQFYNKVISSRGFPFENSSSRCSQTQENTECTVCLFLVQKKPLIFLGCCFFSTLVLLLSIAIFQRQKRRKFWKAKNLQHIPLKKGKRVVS
Assay: cell-based or functional assay
property_measured: Fold-WT (EC50 of variant / EC50 of FGF21-WT) (fold)
Your answer should be a plain number; it is taken to be in fold.

hFGF21(33-209)-V83 (ligand) DSSPLLQFGGQVRQRYLYTDDAQQTEAHLEIREDGTVGGAADQSPESLLELKALKPGVIQILGVKTSRFLCQKPDGTLYGSLHFDPEACSFRELLLEDGYNVYQSEAHGLPLHLPGNRSPHCDPASRGPARFLPLPGLPPALPEPPGILAPQPPDVGSSDPLAMVGPSQARSPSYAS; 0.38
hFGF21(33-209)-V64 (ligand) DSSPLLQFGGQVRQRYLYTDDACQTEAHLEIREDGTVGGAADQSPESLLQLKALKPGVIQILGVKTSRFLCQRPDGTLYGSLHFDPEACSFRELLLENGYNVYQSETHGLPLHLPCNRSPHRDPASRGPARFLPLPGLPPAPPEPPGILAPQPPDVGSSDPLAMVGPSQARSPSYAS; 0.8

# input binder: hFGF21(33-209)-V8 (ligand) DSSPLLQFGGQVRQRYLYTDDAQETEAHLEIREDGTVGGAAHQSPESLLQLKALKPGVIQILGVQTSRFLCQKPDGALYGSLHFDPEACSFRELLLENGYNVYQSETHGLPLHLPGNKSPHRDPASQGPARFLPLPGLPPALPEPPGILAPQPPDVGSSDPLAMVGPSQARSPSYAS ; wanted: its Fold-WT (EC50 of variant / EC50 of FGF21-WT)
5
